Values from PubChem BioAssay AID1159580

- method.description: chemical genetic growth profiling, strain panel (AID 1159580);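 note: tested at 20 µM; growth read once vehicle control cultures reached saturation at 30 °C; 1 = growth at the plate median or of vehicle wells; lower values mean less growth of the strain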
- test.parameters: S. cerevisiae deletion strains, growth OD, locus YER111C, strain swi4
About 2,000 (36%) of roughly 5,500 compounds were called active. Not shown: some 18% with an inconclusive outcome. Cut-off read from the data, not from the text of the source: active = normalized growth mostly below about 0.91 (no sharp cut-off); inconclusive = no clear call, values can overlap the other calls; inactive = mostly above about 0.92. The list shows a part of the results.
// allowed return values: 1 = active, 0 = inactive

For this molecule, state the assay outcome: CC(=O)O[C@@H]1c2c(ccc3ccc(=O)oc23)OC(C)(C)[C@@H]1OC(=O)CC(C)C
0

What call does the record list for CC1=C2C(O)C(=O)OC3CC4C(C)(C)C(=O)C=C[C@]4(C)C(CC1)[C@]23C (some centres not stated) ?
0

I would be grateful if you could indicate the recorded call for COC(=O)CC1C(C)(C)C(OC(C)=O)[C@@H]2[C@@H](OC(C)=O)[C@]34O[C@@]2(O)[C@]1(C)C3CC[C@]1(C)C4=CC(=O)O[C@H]1c1ccoc1 (some centres not stated) .
0

Short answer needed: outcome of this test for NCC(O)CC(=O)O (configuration not stated) ?
0

Entry COc1cc(O)c2c(=O)cc(-c3ccc(OC)c(-c4c(O)cc(O)c5c(=O)cc(-c6ccc(O)cc6)oc45)c3)oc2c1 : call = ?
0

Answer briefly: the call reported for CCCCCC(O)C1C(=O)OC(C)C(O)/C=C/C=C/C=C/C=C/C=C(\C)C(O)CC(O)CC(O)CC(O)CC(O)CC(O)CC1O (configuration not stated) in this assay.
0

Answer briefly: the call reported for CCn1nc(C(=O)O)c(=O)c2cc3c(cc21)OCO3 in this assay.
0

Each molecule tested received a call. Report the one for COc1cc(C(=O)N2CCOCC2)cc(OC)c1OC .
0

Record lookup: outcome of this test for Nc1nc(/C(=C/CC(=O)O)C(=O)N[C@@H]2C(=O)N3C(C(=O)O)=CCS[C@H]23)cs1 ?
0

Outcome logged for Cc1ccc(-c2nc3ccc(C)cn3c2CC(=O)N(C)C)cc1 in this assay:
0

Give the logged outcome of this assay for the following molecule: CC1(C)Oc2ccc3ccc(=O)oc3c2CC1O (configuration not stated)
0

Please let me know the test result on file for C[C@@H]1CCC2[C@](C)(CO)[C@@H](O)CC[C@]2(C)[C@@]12CC[C@@](CO)(CCO)O2 (some centres not stated) .
0

What outcome does the record of this test show for C=CCSSSCC=C ?
0

Kindly provide the recorded test outcome for the following molecule: C=CCSCC=C
0

Please indicate how the test categorized O=S(=O)(O)O .
0

# fetch the recorded call for CC(=O)N1CCN(c2ccc(OCC3CO[C@](Cn4ccnc4)(c4ccc(Cl)cc4Cl)O3)cc2)CC1 (some centres not stated) here
1

Test call for this molecule, please: COc1ccc(-c2cc(=O)c3c(O)cc(O)c(-c4cc(-c5cc(=O)c6c(O)cc(O)cc6o5)ccc4OC)c3o2)cc1
0

###

- method.description: chemical genetic growth profiling, strain panel (AID 1159580);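 note: tested at 20 µM; growth read once vehicle control cultures reached saturation at 30 °C; 1 = growth at the plate median or of vehicle wells; lower values mean less growth of the strain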
- test.parameters: S. cerevisiae deletion strains, growth OD, locus YOL147C, strain pex11, stronger effect = lower value
Screen size: about 5,500 compounds; about 2,000 (36%) were called active. Roughly 18% stayed inconclusive and do not appear here. Some of the results follow.
metric.name: normalized growth
Write no unit; give the number alone.

Reported normalized growth, molecule CO[C@H]1[C@H](O)[C@@H](O[C@H]2CC[C@]3(C=O)C4CC[C@]5(C)[C@@H](C6=CC(=O)OC6)CC[C@]5(O)C4CC[C@@H]3C2)O[C@@H](C)[C@@H]1O (stereo partly drawn) : ____
0.998

Entry under review: C[C@H]1O[C@@H](O[C@H]2[C@@H](O)C[C@H](O[C@H]3[C@@H](O)C[C@H](O[C@H]4CC[C@]5(C)C6CC[C@]7(C)[C@@H](C8=CC(=O)OC8)CC[C@]7(O)C6CC[C@@H]5C4)O[C@@H]3C)O[C@@H]2C)C[C@H](O)[C@@H]1O (stereo partly drawn) . Reported normalized growth?
0.984

Given the entry C[C@]12CCC3C(CC[C@]4(O)C[C@@H](O)CC[C@]34C=O)[C@@]1(O)CCC2C1=CC(=O)OC1 (stereo partly drawn) , report its measured normalized growth.
0.981
